experimental-target: KSP motor domain (Homo sapiens)
test-name: biochemical
setup-conditions: KSP inhibitory activity, end-point assay; class symbols (Table 1); read-out: IC50
pIC50: −log10 of the molar value.
# pIC50 per record follows

Look up and state reported pIC50 for CC(C)(C)C1CCc2nc3sc(C#N)c(Cl)c3cc2C1 (stereo not drawn) [Example 111] < 5.00

---

A collection of molecules and their measured IC50
experimental-target: KSP motor domain (Homo sapiens)
test-name: biochemical
setup-conditions: KSP inhibitory activity, end-point assay; class symbols (Table 1); read-out: IC50

{"molecule": "CC1Cc2nc3sc(C#N)c(N)c3cc2CC1C(C)(C)C (centres unmarked)", "IC50": "0.1 to 1 µM"}

State, in one line, measured IC50 of `C/C=C/C=C1\CCc2nc3sc(C#N)c(N)c3cc2C1` > 10 µM

Provide only the value of recorded IC50 for CC(C)(C)C1CCc2nc3sc(-c4nnc[nH]4)cc3cc2C1 (centres unmarked) 0.1 to 1 µM

Give IC50 for `CC(C)(C)[C@@H]1CCc2nc3sc(C(=O)N[C@H](CN)c4cccc(NC(=O)c5ccno5)c4)cc3cc2C1` < 0.1 µM

Tell me IC50 reported for CCC(C)C1CCc2nc3sc(C#N)c(N)c3cc2C1 (centres unmarked) 1 to 10 µM

---

experimental-target: KSP motor domain (Homo sapiens, UniProt P52732)
test-name: biochemical
setup-conditions: KSP inhibitory activity, end-point assay; class symbols (Table 1); read-out: IC50
quantity: IC50

Some solved entries appear below for comparison.
{"molecule": "Cc1[nH]ncc1C(=O)Nc1cccc([C@@H](CN)NC(=O)c2cc3cc4c(nc3s2)CC[C@@H](C(C)(C)C)C4)c1", "experimental-target": "KSP motor domain (Homo sapiens, UniProt P52732)", "IC50": "< 100 nM"}
{"molecule": "C[C@H](NC(=O)c1cc2cc3c(nc2s1)CCC(C(C)(C)C)C3)C(=N)N (stereo partly shown)", "experimental-target": "KSP motor domain (Homo sapiens, UniProt P52732)", "IC50": "< 100 nM"}
{"molecule": "CC(C)(C)C1CCc2nc3sc(C(=O)NC(CO)CO)cc3cc2C1 (stereo not shown)", "experimental-target": "KSP motor domain (Homo sapiens, UniProt P52732)", "IC50": "100 to 1000 nM"}

Provide the reported IC50 (system: KSP motor domain (Homo sapiens, UniProt P52732)) for `C[C@@H]1CN(C(=O)Nc2cccc([C@@H](CN)NC(=O)c3cc4cc5c(nc4s3)CC[C@@H](C(C)(C)C)C5)c2)C[C@H](C)N1` < 100 nM

---

experimental-target: KSP motor domain (Homo sapiens, UniProt P52732)
Sequence (P52732 18-359 limits assumed): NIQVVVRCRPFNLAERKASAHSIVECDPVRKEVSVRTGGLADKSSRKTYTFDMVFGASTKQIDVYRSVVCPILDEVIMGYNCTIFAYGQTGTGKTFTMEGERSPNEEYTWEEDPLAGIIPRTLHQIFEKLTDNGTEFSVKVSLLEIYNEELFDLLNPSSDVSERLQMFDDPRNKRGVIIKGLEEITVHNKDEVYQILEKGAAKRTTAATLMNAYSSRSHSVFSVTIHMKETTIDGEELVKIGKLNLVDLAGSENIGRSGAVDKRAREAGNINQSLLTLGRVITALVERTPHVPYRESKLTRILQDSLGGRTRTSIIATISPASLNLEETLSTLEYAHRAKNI
test-name: biochemical
setup-conditions: KSP inhibitory activity, end-point assay; class symbols (Table 1); read-out: IC50
pIC50: −log10 of the molar value.
quantity: pIC50

Consider the worked cases shown below.
{"molecule": "CC(C)(C)C1CCc2nc3sc(C(=O)Nc4ccc(O)c(N)c4)cc3cc2C1 (centres unmarked) [Example 226H]", "experimental-target": "KSP motor domain (Homo sapiens, UniProt P52732)", "pIC50": "6.00 to 7.00"}
{"molecule": "CCCC1(CCC)CCc2nc3sc(C#N)c(N)c3cc2C1 [Example 16]", "experimental-target": "KSP motor domain (Homo sapiens, UniProt P52732)", "pIC50": "< 5.00"}
{"molecule": "CC(C)(C)C1CCc2nc3sc(C(=O)NCc4ccccc4)cc3cc2C1 (centres unmarked) [Example 78]", "experimental-target": "KSP motor domain (Homo sapiens, UniProt P52732)", "pIC50": "< 5.00"}
{"molecule": "CC(C)[C@H](NC(=O)c1cc2cc3c(nc2s1)CCC(C(C)(C)C)C3)C(=N)N (some centres unmarked) [Example 171]", "experimental-target": "KSP motor domain (Homo sapiens, UniProt P52732)", "pIC50": "5.00 to 6.00"}

Identify measured pIC50 associated with CC(C)(C)C1CCc2nc3sc(C(=O)NCCCN)cc3cc2C1 (centres unmarked) [Example 101] 6.00 to 7.00

---

experimental-target: KSP motor domain (Homo sapiens)
Sequence (P52732 18-359 limits assumed): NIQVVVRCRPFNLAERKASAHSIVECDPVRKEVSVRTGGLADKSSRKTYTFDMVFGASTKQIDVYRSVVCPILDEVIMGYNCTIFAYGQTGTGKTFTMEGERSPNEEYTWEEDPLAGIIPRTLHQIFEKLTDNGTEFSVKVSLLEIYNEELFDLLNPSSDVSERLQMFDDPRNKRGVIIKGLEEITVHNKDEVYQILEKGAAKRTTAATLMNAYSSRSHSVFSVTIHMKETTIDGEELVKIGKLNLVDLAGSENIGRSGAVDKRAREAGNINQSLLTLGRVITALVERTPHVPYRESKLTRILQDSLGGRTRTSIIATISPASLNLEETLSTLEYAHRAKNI
test-name: biochemical
setup-conditions: KSP inhibitory activity, end-point assay; class symbols (Table 1); read-out: IC50
pIC50: −log10 of the molar value.
quantity: pIC50

Worked examples follow.
{"compound": "CC(C)(C)[C@@H]1CCc2nc3sc(C(=O)N[C@H](CN)c4cccc(NC(=O)c5nsnc5N)c4)cc3cc2C1", "quantity": "pIC50", "value-measured": "> 7.00"}
{"compound": "CSc1nc2cc3c(nc2s1)CCC(C(C)(C)C)C3 (centres unmarked)", "quantity": "pIC50", "value-measured": "< 5.00"}
{"compound": "CC(C)(C)C1CCc2nc3sc(C(=O)N4C[C@H](O)C[C@@H]4C(=O)O)cc3cc2C1 (some centres unmarked)", "quantity": "pIC50", "value-measured": "< 5.00"}

Now, please, on to the next compound.
Fill in reported pIC50 for this entry: CC[C@@H](C#N)NC(=O)c1cc2cc3c(nc2s1)CCC(C(C)(C)C)C3 (some centres unmarked) < 5.00

---

Form field: pIC50 (one value per entry).
experimental-target: KSP motor domain (Homo sapiens, UniProt P52732)
Sequence (P52732 18-359 limits assumed): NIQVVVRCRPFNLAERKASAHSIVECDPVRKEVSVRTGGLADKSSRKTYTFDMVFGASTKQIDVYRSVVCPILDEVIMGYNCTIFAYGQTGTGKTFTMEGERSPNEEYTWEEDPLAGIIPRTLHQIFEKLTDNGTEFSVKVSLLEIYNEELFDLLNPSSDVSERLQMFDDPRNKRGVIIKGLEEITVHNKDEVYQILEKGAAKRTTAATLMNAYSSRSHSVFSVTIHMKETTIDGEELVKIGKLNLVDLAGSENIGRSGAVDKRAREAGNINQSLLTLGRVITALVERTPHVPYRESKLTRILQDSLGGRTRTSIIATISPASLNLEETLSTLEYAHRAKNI
test-name: biochemical
setup-conditions: KSP inhibitory activity, end-point assay; class symbols (Table 1); read-out: IC50
pIC50: −log10 of the molar value.

Check out these entries, answers already filled in.
{"molecule": "CC(C)(C)C1CCc2nc3sc(CNC(=O)C4CC4)cc3cc2C1 (centres unmarked) [Example 155]", "pIC50": "5.00 to 6.00"}
{"molecule": "N#Cc1sc2nc3c(cc2c1N)CN(CC1CC1)CC3 [Example 55]", "pIC50": "< 5.00"}
{"molecule": "CC(C)(C)C1CCc2nc3sc(C(=O)N[C@H](CN)c4ccsc4)cc3cc2C1 (some centres unmarked) [Example 284]", "pIC50": "> 7.00"}
{"molecule": "CC(C)(C)C1CCc2nc3sc(C#N)cc3cc2C1 (single isomer, unassigned) [Example 62]", "pIC50": "6.00 to 7.00"}

# next molecule below
Retrieve pIC50 on KSP motor domain (Homo sapiens, UniProt P52732); query CC(C)(C)C1CCc2nc3sc(C(=O)N[C@H](CO)c4ccccc4)cc3cc2C1 (some centres unmarked) [Example 160] 5.00 to 6.00

---

Recorded measurements of pIC50, one per entry
experimental-target: KSP motor domain (Homo sapiens, UniProt P52732)
test-name: biochemical
setup-conditions: KSP inhibitory activity, end-point assay; class symbols (Table 1); read-out: IC50
pIC50: −log10 of the molar value.

{"compound": "CC(C)(C)C1CCc2nc3sc(C(=O)N[C@H](C#N)Cc4ccccc4)cc3cc2C1 (some centres unmarked)", "experimental-target": "KSP motor domain (Homo sapiens, UniProt P52732)", "pIC50": "< 5.00"}

Identify measured pIC50 associated with CC(C)(C)C1CCc2nc3sc(C(=O)N[C@H](CN)Cc4ccccc4)cc3cc2C1 (some centres unmarked) 6.00 to 7.00

Given the compound CC(C)(C)C1CCc2nc3sc4c(=O)[nH]nnc4c3cc2C1 (centres unmarked) , write its reported pIC50. 5.00 to 6.00

Please give the documented pIC50 of CC(C)(C)C1CCc2nc3sc(C(=O)Nc4ccncc4)cc3cc2C1 (centres unmarked) [Example 226C] 6.00 to 7.00

Indicate its recorded pIC50; the compound in question is CC(C)(C)C1CCc2nc3sc(S)nc3cc2C1 (centres unmarked) 6.00 to 7.00
